// provenance: ChEMBL document CHEMBL3637782

Experiment: GSK_TB: Lipophilicity, log D of the compound at pH 7.4 by ChromlogD analysis
Type: physicochemical
Settings: buffer
Assign labels as follows, please: fulfilled for Lipophilicity below 4; not fulfilled for Lipophilicity equal to or exceeding 4.

Molecule: CN(Cc1ccc(Cl)cc1)C(=O)CCc1nc2ccccc2oc1=O
Group label: not fulfilled

Molecule: NS(=O)(=O)c1ccc(Nc2cnc3ccccc3n2)cc1
Group label: fulfilled

Molecule: CCOCn1ccc(NS(=O)(=O)c2ccc(N)cc2)nc1=O
Group label: fulfilled

Molecule: CNc1snc(C)c1C(=O)NCCOc1ccc(OC)cc1
Group label: not fulfilled

Data request: Dear colleague, could you confirm whether Lipophilicity of "O=C(NCCO)c1c(O)c2ncc(Cc3ccc(F)cc3C(F)(F)F)cc2[nH]c1=O" falls below 4? Thanks.
Data returned: fulfilled

###

Experiment: GSK_TB: Lipophilicity, log D of the compound at pH 7.4 by ChromlogD analysis
Type: physicochemical
Settings: buffer
Observed property: Lipophilicity
Simply state the number, no unit and no words.

Molecule: N#Cc1cc(C(F)(F)F)c2nc(C(=O)NCc3cccs3)c(Cl)n2c1
Observed property: Lipophilicity
Recorded value: 5.21

Molecule: COc1ccc2nccc(NC(=O)C3CCN(CCc4ccc(Cl)cc4)CC3)c2n1
Observed property: Lipophilicity
Recorded value: 5.49

Molecule: Cc1c(C(=O)NCCOc2ccccc2)[nH]c2c1C(=O)CCC2
Observed property: Lipophilicity
Recorded value: 3.62

The recorded Lipophilicity for "NC(=O)c1cc2ccc(CC(=O)c3cccs3)cc2s1" is 3.62

The recorded Lipophilicity for CC1CC1c1ccc(CN2CCc3nc(Nc4ccccc4)sc3CC2)o1 (stereo not given) is 7.64

The recorded Lipophilicity for "O=C(NCc1ccco1)N1CCN(Cc2cccs2)CC1" is 3.53

The recorded Lipophilicity for "COC(=O)c1ccc(Oc2ccc(-c3csc(C)n3)cc2F)nn1" is 4.83

The recorded Lipophilicity for "Clc1nnc(N2CCCC2)c2ccccc12" is 4.41

The recorded Lipophilicity for "Cc1nc(Nc2cnn(Cc3ccccc3F)c2)c2nn(C)c(C)c2n1" is 3.41

The recorded Lipophilicity for "NC(=O)c1ccc(CN(C2CC2)S(=O)(=O)c2ccccc2F)cc1" is 3.75

The recorded Lipophilicity for "N#Cc1cccc(-c2ccc(NC[C@H]3CC[C@]4(CC3)CN(c3cccnn3)C(=O)O4)nc2)c1" is 4.96

The recorded Lipophilicity for "N#Cc1ncn(-c2ccc3nnc(C(F)(F)F)n3n2)n1" is 3.31

The recorded Lipophilicity for "CCCC/C=C/c1cc2ccncc2cc1OC1CCNCC1" is 3.61

The recorded Lipophilicity for CCCCNCC1COc2ccc(OC)cc2C1=O (stereo not given) is 2.99

The recorded Lipophilicity for "O=C(Nc1nc2c(s1)CCCc1cccnc1-2)c1ccccc1C(F)(F)F" is 5.26

###

Test: GSK_TB: Kinetic solubility of the compound in phosphate buffered saline at pH 7.4 after 1 hr by CLND method
Type: physicochemical
Observed property: solubility kinetic at 1 h

Molecule: Nc1ccc(S(=O)(=O)Nc2ccnn2-c2ccccc2)cc1
Recorded value: ≥ 167 µg/mL
//
Molecule: N#Cc1ncn(-c2ccc3nnc(C(F)(F)F)n3n2)n1
Recorded value: ≥ 105 µg/mL

The recorded solubility kinetic at 1 h for "COc1ccc(CCNC(=O)C2(n3cnnn3)CCCCC2)cc1" is ≥ 226 µg/mL

The recorded solubility kinetic at 1 h for NCC(c1cccs1)S(=O)(=O)c1ccccc1 (stereo not drawn) is ≥ 134 µg/mL

The recorded solubility kinetic at 1 h for "Clc1nnc(N2CCCC2)c2ccccc12" is ≥ 100 µg/mL

The recorded solubility kinetic at 1 h for "O=C(NCc1ccco1)N1CCN(Cc2cccs2)CC1" is ≥ 105 µg/mL

The recorded solubility kinetic at 1 h for "CNc1nc(SC)nnc1-c1cccc(Cl)c1Cl" is ≥ 85 µg/mL

The recorded solubility kinetic at 1 h for "COc1ccc(CN2CCN(C(=O)/C=C/c3csc(C)n3)CC2)cc1" is ≥ 116 µg/mL

###

Assay: GSK_TB: Lipophilicity, log D of the compound at pH 7.4 by ChromlogD analysis
Type: physicochemical
Conditions: buffer
Examples of compounds with documented Lipophilicity follow.
Simply state the number, no unit and no words.

Compound: Cn1cc(CCNC(=O)Nc2ccc(N3CCCCC3)nc2)cn1
Lipophilicity: 2.97

The recorded Lipophilicity for "CC(C)N(C(=O)CNc1ccccc1Nc1ccccc1)c1ccccc1" is 7.73

The recorded Lipophilicity for "c1ccc(-c2ncc(-c3ccc(OCCCn4ccnc4)cc3)s2)cc1" is 6.42

The recorded Lipophilicity for "Nc1ccccc1Nc1ccc(Cl)cc1" is 5.76

The recorded Lipophilicity for Nc1ccc(C(O)CNCCc2ccccc2)cc1O (configuration not stated) is 0.97

The recorded Lipophilicity for "O=S(=O)(NCc1ccccc1)c1ccc(-c2cc3ccncc3cc2OC2CCNCC2)s1" is 3.2

The recorded Lipophilicity for "O=[N+]([O-])c1cnc(-c2nc3ccccc3[nH]2)s1" is 3.17
